Values compiled from patent US10206394B2.

Tested on: Lolium perenne (LOLPE)
Experiment: Glasshouse assay for herbicidal activity (pre- and post-emergence), percentage phytotoxicity
Assay type: in vivo
Settings: Lolium perenne, post-emergence, 360 h, POST-emergence, rate 250 g/ha, visual score 15 DAA (100%=total damage, 0%=no damage); read-out: Post-emergence herbicidal activity (percentage phytotoxicity) LOLPE POST
For each of the compounds below, state its pest or weed control at 250 g/ha.
One number for each entry, in %.

These solved cases illustrate the format of a correct answer.
compound	experimental-result
C/C=C/c1cc(C)c(C2C(=O)CC(CC(=O)NCc3cccc(Cl)c3)C2=O)c(CC)c1 (stereo not drawn) [Compound B187]	90
Cc1cc(-n2cc(Cl)cn2)cc(C)c1C1C(=O)CC(CC(=O)NCc2cccc(Cl)c2)C1=O (stereo not drawn) [Compound B262]	70

Now examine the next entry.
What value of pest or weed control at 250 g/ha has been recorded for this entry: C=C(C)CNC(=O)CC1CC(=O)C(c2c(C)cc(-c3ncc(F)cc3F)cc2C)C1=O (stereo not drawn) [Compound B200] 100

====

Test system: Lolium perenne (LOLPE)
Assay: Glasshouse assay for herbicidal activity (pre- and post-emergence), percentage phytotoxicity
Type: in vivo
Conditions: Lolium perenne, pre-emergence, 480 h, 250 g/ha; pre-emergence; 20 DAA; visual assessment (100%=total damage, 0%=no damage); read-out: Pre-emergence herbicidal activity (percentage phytotoxicity) LOLPE PRE
For each of the molecules below, state its pest or weed control at 250 g/ha.
Answers are plain numbers, in %.

molecule	measured-attribute	value-unit	experimental-result
Cc1cc(Br)cc(C)c1C1C(=O)CC(CC(=O)NCC2CC2(Cl)Cl)C1=O (centres unmarked)	pest or weed control at 250 g/ha	%	80
C/C=C/c1cc(C)c(C2C(=O)CC(CC(N)=O)C2=O)c(CC)c1 (centres unmarked)	pest or weed control at 250 g/ha	%	80
Cc1cc(C)c(C2C(=O)CC(CC(=O)NC(C)(C)c3ccccc3)C2=O)c(C)c1 (centres unmarked)	pest or weed control at 250 g/ha	%	80
Cc1cc(C)c(C2C(=O)CC(CC(=O)NCc3ccccc3C(F)(F)F)C2=O)c(C)c1 (centres unmarked)	pest or weed control at 250 g/ha	%	80
Cc1cc(-c2ncc(Cl)cn2)cc(C)c1C1C(=O)C[C@H](CC(=O)NC(C)(C)C)C1=O (some centres unmarked)	pest or weed control at 250 g/ha	%	100
Cc1cc(-c2ncc(F)cc2F)cc(C)c1C1C(=O)CC(CC(=O)NCC2CC2(Cl)Cl)C1=O (centres unmarked)	pest or weed control at 250 g/ha	%	100
C=CCNC(=O)CC1CC(=O)C(c2c(C)cc(Br)cc2C)C1=O (centres unmarked)	pest or weed control at 250 g/ha	%	70
COc1cccc(CNC(=O)CC2CC(=O)C(c3c(C)cc(-c4ncc(Cl)cc4F)cc3C)C2=O)c1 (centres unmarked)	pest or weed control at 250 g/ha	%	80
C=C(C)CNC(=O)CC1CC(=O)C(c2c(C)cc(OCC(F)(F)F)cc2C)C1=O (centres unmarked)	pest or weed control at 250 g/ha	%	90
Cc1cc(C)c(C2C(=O)CC(CC(=O)N[C@@H]3C[C@@H]3F)C2=O)c(C)c1 (some centres unmarked)	pest or weed control at 250 g/ha	%	90

Batch lookup, pest or weed control at 250 g/ha per entry.
1. C#Cc1ccc(CNC(=O)CC2CC(=O)C(c3c(C)cc(C)cc3C)C2=O)cc1 (centres unmarked)
2. Cc1cc(-c2ncc(F)cc2F)cc(C)c1C1C(=O)CC(CC(=O)N2CCOCC2)C1=O (centres unmarked)
3. C=C(C)CNC(=O)CC1CC(=O)C(c2c(C)cccc2CC)C1=O (centres unmarked)
4. C=C(Cl)CNC(=O)CC1CC(=O)C(c2c(C)cc(C)cc2C)C1=O (centres unmarked)
5. Cc1cc(-c2ncc(F)cc2F)cc(C)c1C1C(=O)CC(CC(=O)NCc2ccc(Br)cc2)C1=O (centres unmarked)

1: 90; 2: 100; 3: 100; 4: 100; 5: 90

Batch lookup, pest or weed control at 250 g/ha per entry.
1. Cc1cc(-c2ncc(C#N)cc2Cl)cc(C)c1C1C(=O)CC(CC(=O)NC(C)(C)C)C1=O (centres unmarked)
2. C#CC(C)(COC)NC(=O)CC1CC(=O)C(c2c(C)cc(C)cc2C)C1=O (centres unmarked)

80
70

Batch lookup, pest or weed control at 250 g/ha per entry.
1. Cc1cc(C)c(C2C(=O)CC(CC(=O)NCc3cccc(C)n3)C2=O)c(C)c1 (centres unmarked)
2. Cc1cc(-c2ncc(F)cc2F)cc(C)c1C1C(=O)CC(CC(=O)NCc2cccc(C(F)(F)F)c2)C1=O (centres unmarked)

1. 80
2. 90

Batch lookup, pest or weed control at 250 g/ha per entry.
1. Cc1cc(C)c(C2C(=O)CC(CC(=O)NC/C=C/Br)C2=O)c(C)c1 (centres unmarked)
2. Cc1cc(C)c(C2C(=O)CC(CC(=O)N(C)C(C)(C)C)C2=O)c(C)c1 (centres unmarked)
3. Cc1cc(Br)cc(C)c1C1C(=O)CC(CC(=O)NCC2CC2C(F)F)C1=O (centres unmarked)
4. Cc1cc(-c2ncc(F)cn2)cc(C)c1C1C(=O)CC(CC(N)=O)C1=O (centres unmarked)

100
100
70
20
